Let's look at some compounds and their measured pIC50.
# ASSAYED_TARGET: KLK4 (Homo sapiens)
# MEASUREMENT_NOTES: biochemical
Where a SMILES comes first, the peptide text is derived from it. Bridges are numbered along the chain shown (N, C = ends).
Scale for pIC50: -log10 of concentration given in mol/L; no unit attached.

Field: example entries. Status: answers known.
# input What value of measured pIC50 is listed for CC[C@H](C)[C@@H]1NC(=O)[C@@H]2CCCN2C(=O)[C@@H]2CCCN2C(=O)[C@H]([C@@H](C)CC)NC(=O)[C@H](CO)NC(=O)[C@H](CCCNC(=N)N)NC(=O)[C@H](CCC(N)=O)NC(=O)[C@@H]2CSSC[C@H](NC1=O)C(=O)N[C@@H](Cc1ccccc1)C(=O)N1CCC[C@H]1C(=O)N[C@@H](CCCCN)C(=O)NCC(=O)N[C@@H](Cc1ccccc1)C(=O)N2 [SFTI-FCQR Lys14] (cyclo(GFCQRSIPPICFPK); disulfide 3-11) ?
# output 8.22

# input Proceed to CC[C@H](C)[C@@H]1NC(=O)[C@@H]2CCCN2C(=O)[C@@H]2CCCN2C(=O)[C@H]([C@@H](C)CC)NC(=O)[C@H](CO)NC(=O)[C@H](CCCNC(=N)N)NC(=O)[C@H](CCC(N)=O)NC(=O)[C@@H]2CSSC[C@H](NC1=O)C(=O)N[C@@H](Cc1ccccc1)C(=O)N1CCC[C@H]1C(=O)NCC(=O)NCC(=O)N[C@@H](Cc1ccccc1)C(=O)N2 [SFTI-FCQR Gly14] (cyclo(GFCQRSIPPICFPG); disulfide 3-11)
# output 7.83

---
# input Which measured pIC50 value corresponds to CC[C@H](C)[C@@H]1NC(=O)[C@@H]2CCCN2C(=O)[C@@H]2CCCN2C(=O)[C@H]([C@@H](C)CC)NC(=O)[C@H](CO)NC(=O)[C@H](CCCNC(=N)N)NC(=O)[C@H](CCC(N)=O)NC(=O)[C@@H]2CSSC[C@H](NC1=O)C(=O)N[C@@H](Cc1ccccc1)C(=O)N1CCC[C@H]1C(=O)N[C@@H](C)C(=O)NCC(=O)N[C@@H](Cc1ccccc1)C(=O)N2 [SFTI-FCQR Ala14] (cyclo(GFCQRSIPPICFPA); disulfide 3-11) ?
# output 7.58

# input Try this compound too: CC[C@H](C)[C@@H]1NC(=O)[C@@H]2CCCN2C(=O)[C@@H]2CCCN2C(=O)[C@H]([C@@H](C)CC)NC(=O)[C@H](CO)NC(=O)[C@H](CCCNC(=N)N)NC(=O)[C@H](CCC(N)=O)NC(=O)[C@@H]2CSSC[C@H](NC1=O)C(=O)N[C@@H](Cc1ccccc1)C(=O)N1CCC[C@H]1C(=O)N[C@@H](CO)C(=O)NCC(=O)N[C@@H](Cc1ccccc1)C(=O)N2 [SFTI-FCQR Ser14] (cyclo(GFCQRSIPPICFPS); disulfide 3-11)
# output 7.53

----------
The reader will find reported Ki values listed item by item below.
# ASSAYED_TARGET: KLK4 (Homo sapiens, UniProt Q9Y5K2)
# Sequence (Q9Y5K2 31-254): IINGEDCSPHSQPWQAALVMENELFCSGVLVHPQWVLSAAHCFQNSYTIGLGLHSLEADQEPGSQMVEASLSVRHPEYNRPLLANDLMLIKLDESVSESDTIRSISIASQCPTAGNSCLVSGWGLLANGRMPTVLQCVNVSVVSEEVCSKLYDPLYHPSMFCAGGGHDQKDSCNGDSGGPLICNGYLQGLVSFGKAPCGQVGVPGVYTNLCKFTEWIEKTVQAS
# MEASUREMENT_NOTES: biochemical
Where a SMILES comes first, the peptide text is derived from it. Bridges are numbered along the chain shown (N, C = ends).
Answer format: numeric, nM implied, no suffix.

Use the examples below as a reference point.
# input Entry CC[C@H](C)[C@@H]1NC(=O)[C@@H]2CCCN2C(=O)[C@@H]2CCCN2C(=O)[C@H]([C@@H](C)CC)NC(=O)[C@H](CO)NC(=O)[C@H](CCCNC(=N)N)NC(=O)[C@H](CCC(N)=O)NC(=O)[C@@H]2CSSC[C@H](NC1=O)C(=O)N[C@@H](Cc1ccccc1)C(=O)N1CCC[C@H]1C(=O)N[C@@H](C)C(=O)NCC(=O)N[C@@H](Cc1ccccc1)C(=O)N2 [SFTI-FCQR Ala14] (cyclo(GFCQRSIPPICFPA); disulfide 3-11) : reported Ki = ?
# output 18.3

# input // repeat for CC[C@H](C)[C@@H]1NC(=O)[C@@H]2CCCN2C(=O)[C@@H]2CCCN2C(=O)[C@H]([C@@H](C)CC)NC(=O)[C@H](CO)NC(=O)[C@H](CCCNC(=N)N)NC(=O)[C@H](CCC(N)=O)NC(=O)[C@@H]2CSSC[C@H](NC1=O)C(=O)N[C@@H](Cc1ccccc1)C(=O)N1CCC[C@H]1C(=O)N[C@@H](CO)C(=O)NCC(=O)N[C@@H](Cc1ccccc1)C(=O)N2 [SFTI-FCQR Ser14] (cyclo(GFCQRSIPPICFPS); disulfide 3-11) and report
# output 21.2

Others:
# input What does the record list as Ki for CC[C@H](C)[C@@H]1NC(=O)[C@@H]2CCCN2C(=O)[C@@H]2CCCN2C(=O)[C@H]([C@@H](C)CC)NC(=O)[C@H](CO)NC(=O)[C@H](CCCNC(=N)N)NC(=O)[C@H](CCC(N)=O)NC(=O)[C@@H]2CSSC[C@H](NC1=O)C(=O)N[C@@H](Cc1ccccc1)C(=O)N1CCC[C@H]1C(=O)N[C@@H](CC(N)=O)C(=O)NCC(=O)N[C@@H](Cc1ccccc1)C(=O)N2 [SFTI-FCQR Asn14] (cyclo(GFCQRSIPPICFPN); disulfide 3-11) ?
# output 0.0386

# input Same question for CC[C@H](C)[C@@H]1NC(=O)[C@@H]2CCCN2C(=O)[C@@H]2CCCN2C(=O)[C@H]([C@@H](C)CC)NC(=O)[C@H](CO)NC(=O)[C@H](CCCNC(=N)N)NC(=O)[C@H](CCC(N)=O)NC(=O)[C@@H]2CSSC[C@H](NC1=O)C(=O)N[C@@H](Cc1ccccc1)C(=O)N1CCC[C@H]1C(=O)NCC(=O)NCC(=O)N[C@@H](Cc1ccccc1)C(=O)N2 [SFTI-FCQR Gly14] (cyclo(GFCQRSIPPICFPG); disulfide 3-11) please.
# output 10.4

# input Repeat for the following compound: CC[C@H](C)[C@@H]1NC(=O)[C@@H]2CCCN2C(=O)[C@@H]2CCCN2C(=O)[C@H]([C@@H](C)CC)NC(=O)[C@H](CO)NC(=O)[C@H](CCCNC(=N)N)NC(=O)[C@H](CCC(N)=O)NC(=O)[C@@H]2CSSC[C@H](NC1=O)C(=O)N[C@@H](Cc1ccccc1)C(=O)N1CCC[C@H]1C(=O)N[C@@H](CC(=O)O)C(=O)NCC(=O)N[C@@H](Cc1ccccc1)C(=O)N2 [SFTI-FCQR Asp14] (cyclo(GFCQRSIPPICFPD); disulfide 3-11)
# output 3.89

# input What do we get for CC[C@H](C)[C@@H]1NC(=O)[C@@H]2CCCN2C(=O)[C@@H]2CCCN2C(=O)[C@H]([C@@H](C)CC)NC(=O)[C@H](CO)NC(=O)[C@H](CCCNC(=N)N)NC(=O)[C@H](CCC(N)=O)NC(=O)[C@@H]2CSSC[C@H](NC1=O)C(=O)N[C@@H](Cc1ccccc1)C(=O)N1CCC[C@H]1C(=O)N[C@@H](CCCCN)C(=O)NCC(=O)N[C@@H](Cc1ccccc1)C(=O)N2 [SFTI-FCQR Lys14] (cyclo(GFCQRSIPPICFPK); disulfide 3-11) ?
# output 3.56
